inhibition of SARS-CoV-2 cytopathic effect reference
# Tested on: Vero E6 infected with SARS-CoV-2
# Test Summary: inhibition of SARS-CoV-2 cytopathic effect; higher = more antiviral protection, active = above 15
# Setup Conditions: 833.33 nM; 48 h
Kindly answer with a numeric value in %, unit omitted.

# count of solved cases: 3
Compound	Unit Abbrev	Observed Value
O[C@H]1[C@H](O)[C@@H](O)[C@H](O)[C@@H](O)[C@H]1O [inositol]	%	1.69
CCN(CC)CCNC(=O)c1c(C)[nH]c(/C=C2\C(=O)Nc3ccc(F)cc32)c1C [sunitinib]	%	-2.15
Cc1ccc(S(N)(=O)=O)cc1 [para-toluenesulfonamide]	%	0.12

Consider the record given below.
Request the reported inhibition of SARS-CoV-2 cytopathic effect associated with COc1cc(N2CCC(N3CCN(C)CC3)CC2)ccc1Nc1ncc(Cl)c(Nc2ccccc2P(C)(C)=O)n1 [brigatinib]
-0.42

====

# Tested on: Vero E6 infected with SARS-CoV-2
# Test Summary: SARS-CoV-2 infection rate relative to infected DMSO; higher = more infection, active = 60 or less
# Setup Conditions: 24 h
Outcome Measure: SARS-CoV-2 infection rate (%)
Kindly answer with a numeric value in %, unit omitted.

Molecule	Study System	Observed Value
CCCCc1nc(-c2ccc(OCCCN(CC)CC)cc2)cn1-c1ccc(Oc2ccc(Cl)cc2)cc1 [azeliragon] (0.833333 µM)	Vero E6 infected with SARS-CoV-2	93
CS(=O)(=O)N1CCc2c(-c3cnc(N)nc3)nc(N3CCOCC3)nc21 (0.833333 µM)	Vero E6 infected with SARS-CoV-2	110
CN1CCCC(n2nc(Cc3ccc(Cl)cc3)c3ccccc3c2=O)CC1 (configuration not stated) [azelastine] (10 µM)	Vero E6 infected with SARS-CoV-2	72
O=C(CCCN1CCC(O)(c2ccc(Cl)cc2)CC1)c1ccc(F)cc1 [haloperidol] (10 µM)	Vero E6 infected with SARS-CoV-2	114

Request the reported SARS-CoV-2 infection rate associated with C=CCc1cc(OC)c(O)c(C(=O)NCCO)c1 [alibendol] (10 µM)
118

Request the reported SARS-CoV-2 infection rate associated with O=C(O)c1ccccc1NCCc1ccccc1 [tromaril] (10 µM)
105

Request the reported SARS-CoV-2 infection rate associated with Cc1ncc(C[n+]2csc(CCO)c2C)c(N)n1 [thiamine] (10 µM)
96.5

Request the reported SARS-CoV-2 infection rate associated with O=C(O)CC/C=C\C[C@@H]1CO[C@H](c2ccccc2Cl)O[C@@H]1c1ccccc1O (racemic) (10 µM)
106

Request the reported SARS-CoV-2 infection rate associated with Cc1cc2cc3c(C)cc(=O)oc3c(C)c2o1 [trioxsalen] (10 µM)
94

Request the reported SARS-CoV-2 infection rate associated with Cc1sc2c(c1C)C(c1ccc(Cl)cc1)=N[C@@H](CC(=O)Nc1ccc(OCCOCCOCCOCCNc3cccc4c3C(=O)N(C3CCC(=O)NC3=O)C4=O)cc1)c1nnc(C)n1-2 (some centres not stated) (10 µM)
100

Request the reported SARS-CoV-2 infection rate associated with CCn1c(-c2nonc2N)nc2cncc(CNC3CCNCC3)c21 (10 µM)
106

====

# System: Vero E6 infected with SARS-CoV-2
# Test Summary: inhibition of SARS-CoV-2 cytopathic effect; higher = more antiviral protection, active = above 15
# Setup Conditions: 100 nM; 48 h
inhibition of SARS-CoV-2 cytopathic effect reference

# count of solved cases: 2
Compound	Observed Value
CC(C)(C(=O)NCC(F)(F)C(F)(F)F)C(=O)N[C@@H]1C(=O)Nc2ccccc2-c2ccccc21	-4.95% (inactive)
O=C(Cc1ccc(Cl)c(Cl)c1)N1CCCC[C@@H]1CN1CCCC1	1.57% (inactive)

Request the reported inhibition of SARS-CoV-2 cytopathic effect associated with CCCCCCCCCCCCCCOc1ccc(C(=O)O)o1
1.46% (inactive)

Request the reported inhibition of SARS-CoV-2 cytopathic effect associated with CC(=O)OCC(=O)[C@@]1(O)CC[C@H]2[C@@H]3CCC4=CC(=O)C=C[C@]4(C)[C@H]3[C@@H](O)C[C@@]21C [prednisolone-acetate]
-0.58% (inactive)
